Biological target: T1, human IL-2Rβ (human, UniProt P14784 27-240, limits assumed)
T1 construct: Recombinant protein, coated (ELISA) or immobilised on CM5 (SPR); also called hu IL-2R; interleukin 2 receptor β-chain
T1 sequence: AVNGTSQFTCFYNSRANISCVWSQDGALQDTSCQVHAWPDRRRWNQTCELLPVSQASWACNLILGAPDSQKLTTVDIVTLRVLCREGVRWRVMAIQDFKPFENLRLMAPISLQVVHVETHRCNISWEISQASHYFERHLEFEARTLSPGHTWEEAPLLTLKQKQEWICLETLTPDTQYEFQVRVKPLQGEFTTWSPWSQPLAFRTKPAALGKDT
Experiment: SPR (Biacore), P.E. off-rate ranking
Here the recorded koff is given for each entry.

BINDER | koff, s⁻¹
FJ1427 P035MP03B11 (VHH, soluble VHH in periplasmic extract; also called clone nr) VHH: EVQLVESGGGLVQAGGSLRLACALSGDVFVRYTMAWFRQAPGKEREFVASVTDSGRTTDYVASVQGRFTVSRDNNKNTVYLQMNSLKPEDTAVYYCAANTDYFQIRSLDRNTWGQGTQVTVSS | 0.000622
FJ1427_P035MP03G10 (VHH, soluble VHH in periplasmic extract; also called clone nr) VHH: QVQLVESGGGLVQAGGSLRLSCAASGRSYAMGWFRQAPGKEREFVAAISWSASSTYYSESVKGRFTISRENAKNTVYLQMNSLKPEDTAVYYCAVRASPFVAGSYDPSDDPADYGSWGQGTQVIVSS | 0.00165
FJ1427 P035MP03E05 (VHH, soluble VHH in periplasmic extract; also called clone nr) VHH: EVQLVESGGGLVQAGGSLRLSCAVSGVIFWSDVVGWYRQASGKQRELVATINLDDTKHYGEVVKGRFAISRDSHKNAYYLQLNSLKPEDTAVYYCNVRRGSEFYWGQGTQVTVSS | 0.000526
FJ1427_P035MP03G02 (VHH, soluble VHH in periplasmic extract; also called clone nr) VHH: EVQLVESGGGLVQPGGSLRLSCAISGGTLDSYGIGWVRQAPGKQREGVSCMSRSDDRTFYADSVKGRFTISKDNAKSTVYLQMTNLKPDDTAVYYCAAVDAYGCSLVQPTTYDFWGLGTQVTVSS | 0.000754
FJ1427_P035MP03A10 (VHH, soluble VHH in periplasmic extract; also called clone nr) VHH: QVQLVESGGGLVQAGGSLRLACALSGDVFVRYTMAWFRQAPGKEREFVASVTDSGRTTDYVASVQGRFTVSRDNNKNTVYLQMNSLKPEDTAVYYCAANTDYFQIRSLDRNTWGQGTQVTVSS | 0.000636
FJ1427_P035MP03A04 (VHH, soluble VHH in periplasmic extract; also called clone nr) VHH: EVQLVESGGGSVQTGGSLRLSCVVSGSHFISDVMGWYRQVPGKQRELVADMADGGSVKYGDSVKGRFTILRDSVKNTVTLQMSSLNPEDTGVYYCKAGLWITGRHFDYWGQGTQVTVTS | 0.000373
FJ1427_P035MP03C07 (VHH, soluble VHH in periplasmic extract; also called clone nr) VHH: QVQLVESGGGLVQAGDSLRLSCAASGRSLSTDCMGWVRQAPGKEREFVAGITWGTGSTLYADSVEGRFTISKDNAKNTGYLQMSSLKPEDTAVYYCAVDRYCYRGTVYRDWGRGTQVTVSS | 0.000533
FJ1427 P035MP02A12 (VHH, soluble VHH in periplasmic extract; also called clone nr) VHH: QVQLQESGGGLVQAGGSLRLSCAVSGRSFRNYVMGWFRQAPGREREIVAGITQFTSTTYYDDSVKGRFTISRDNAKNTVYLQMNSLKPEDTALYYCAADRSIKMTADWAYWGQGTQVTVSS | 0.00451
